Values compiled from patent US20260263603A1.

TEST_NAME: in vitro
STATED_CONDITIONS: rat, liver microsomes, Rat liver microsomal stability (RLM) t½ min, 0.5 mg microsome/mL, 1 mM NADPH
MEASURED_PROPERTY: half-life at 1 uM (min)
Give bare numbers, in min.

Task item: Given CC(C)C(N)C(=O)N/N=C1\C=C[C@@]2(C)C(=C1)CC[C@H]1[C@@H]3C[C@@H](C)[C@](O)(C(=O)CO)[C@@]3(C)C[C@H](O)[C@@]12F (single isomer, unassigned) [Compound VA] , state its recorded half-life at 1 uM.
Reply: 44

* * *

ASSAY_TARGET: UniProtKB P04150
Sequence (P04150 whole entry, species assumed): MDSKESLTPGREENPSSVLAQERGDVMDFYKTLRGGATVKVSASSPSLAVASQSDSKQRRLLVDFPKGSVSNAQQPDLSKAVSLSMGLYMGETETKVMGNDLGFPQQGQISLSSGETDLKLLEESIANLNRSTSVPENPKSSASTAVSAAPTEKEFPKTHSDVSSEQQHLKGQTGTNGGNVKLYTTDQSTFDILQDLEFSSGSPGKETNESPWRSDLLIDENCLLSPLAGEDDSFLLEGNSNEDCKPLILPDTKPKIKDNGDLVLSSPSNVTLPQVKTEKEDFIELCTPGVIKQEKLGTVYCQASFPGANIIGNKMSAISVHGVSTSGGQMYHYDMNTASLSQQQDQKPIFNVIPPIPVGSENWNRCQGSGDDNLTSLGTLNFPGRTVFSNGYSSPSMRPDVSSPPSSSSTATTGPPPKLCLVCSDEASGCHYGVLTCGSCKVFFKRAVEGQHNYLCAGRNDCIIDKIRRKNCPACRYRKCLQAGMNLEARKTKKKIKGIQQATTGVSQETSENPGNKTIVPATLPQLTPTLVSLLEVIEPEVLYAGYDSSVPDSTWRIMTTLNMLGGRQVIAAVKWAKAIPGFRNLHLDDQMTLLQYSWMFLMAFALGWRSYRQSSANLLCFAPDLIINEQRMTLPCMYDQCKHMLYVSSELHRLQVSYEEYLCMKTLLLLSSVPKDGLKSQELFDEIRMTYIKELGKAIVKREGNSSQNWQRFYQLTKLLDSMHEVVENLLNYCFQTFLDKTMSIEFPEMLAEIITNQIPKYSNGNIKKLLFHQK
STATED_CONDITIONS: @ 0.1 uM
Exercise: state measured GR Binding Data for each of the compounds provided.
Give bare numbers, in %.

Go through the list and state GR Binding Data for each entry.
1. C[C@@H]1C[C@H]2[C@@H]3CCC4=C/C(=N\NC(=O)[C@H](N)Cc5ccccc5)C=C[C@]4(C)[C@@]3(F)[C@@H](O)C[C@]2(C)[C@@]1(O)C(=O)CO [Compound VIIIB]
2. C[C@@H]1C[C@H]2[C@@H]3CCC4=CC(=O)C=C[C@]4(C)[C@@]3(F)[C@@H](O)C[C@]2(C)[C@@]1(O)/C(CO)=N\NC(=O)C(N)Cc1ccccc1 (single isomer, unassigned) [Compound IIIB]
3. CC(C)C(N)C(=O)N/N=C(/CO)[C@@]1(O)[C@H](C)C[C@H]2[C@@H]3CCC4=CC(=O)C=C[C@]4(C)[C@@]3(F)[C@@H](O)C[C@@]21C (single isomer, unassigned) [Compound IVB]
4. CC(C)C(N)C(=O)N/N=C(/CO)[C@@]1(O)[C@H](C)C[C@H]2[C@@H]3CCC4=CC(=O)C=C[C@]4(C)[C@@]3(F)[C@@H](O)C[C@@]21C (single isomer, unassigned) [Compound IVA]

Reply:
1. 19
2. 8
3. 3
4. 4

* * *

Exercise: state measured Papp B→A at 2 h for each of the compounds provided.
TEST_NAME: in vitro
STATED_CONDITIONS: human, Caco-2, pH 7.4
Don't forget the unit after the number, please.

C[C@@H]1C[C@H]2[C@@H]3CCC4=C/C(=N/NC(=O)[C@@H](N)Cc5ccccc5)C=C[C@]4(C)[C@@]3(F)[C@@H](O)C[C@]2(C)[C@@]1(O)C(=O)CO = 11 ×10⁻⁶ cm/s
CC(C)C(N)C(=O)N/N=C(/CO)[C@@]1(O)[C@H](C)C[C@H]2[C@@H]3CCC4=CC(=O)C=C[C@]4(C)[C@@]3(F)[C@@H](O)C[C@@]21C (single isomer, unassigned) = 4 ×10⁻⁶ cm/s
C[C@@H]1C[C@H]2[C@@H]3CCC4=C/C(=N/NC(=S)[C@@H](N)Cc5ccccc5)C=C[C@]4(C)[C@@]3(F)[C@@H](O)C[C@]2(C)[C@@]1(O)C(=O)CO = 4 ×10⁻⁶ cm/s

Could you now look at the following compound, please?
Task item: Given C[C@@H]1C[C@H]2[C@@H]3CCC4=C/C(=N\NC(=O)[C@@H](N)Cc5ccccc5)C=C[C@]4(C)[C@@]3(F)[C@@H](O)C[C@]2(C)[C@@]1(O)C(=O)CO , state its recorded Papp B→A at 2 h.
Reply: 9 ×10⁻⁶ cm/s

* * *

TEST_NAME: in vitro
STATED_CONDITIONS: rat, plasma
Exercise: state measured half-life at 5 μM for each of the molecules provided.

CC(C)C(N)C(=O)N/N=C(/CO)[C@@]1(O)[C@H](C)C[C@H]2[C@@H]3CCC4=CC(=O)C=C[C@]4(C)[C@@]3(F)[C@@H](O)C[C@@]21C (single isomer, unassigned) = > 4 h
C[C@@H]1C[C@H]2[C@@H]3CCC4=C/C(=N/NC(=S)[C@@H](N)Cc5ccccc5)C=C[C@]4(C)[C@@]3(F)[C@@H](O)C[C@]2(C)[C@@]1(O)C(=O)CO = 2.08 h
C[C@@H]1C[C@H]2[C@@H]3CCC4=C/C(=N/NC(=O)[C@@H](N)Cc5ccccc5)C=C[C@]4(C)[C@@]3(F)[C@@H](O)C[C@]2(C)[C@@]1(O)C(=O)CO = > 4 h
C[C@@H]1C[C@H]2[C@@H]3CCC4=C/C(=N/NC(=O)[C@H](Cc5ccccc5)N(C)C)C=C[C@]4(C)[C@@]3(F)[C@@H](O)C[C@]2(C)[C@@]1(O)C(=O)CO = > 4 h

Could you now look at the following molecule, please?
Task item: Given C[C@@H]1C[C@H]2[C@@H]3CCC4=CC(=O)C=C[C@]4(C)[C@@]3(F)[C@@H](O)C[C@]2(C)[C@@]1(O)/C(CO)=N\NC(=O)C(N)Cc1ccccc1 (single isomer, unassigned) , state its recorded half-life at 5 μM.
Reply: > 4 h
